Recorded values, source patent US20080206264A1.

target: 447-52D Fv fragment; assay: fluorescence quenching of 447Fv upon titration with the peptide
Bridge positions count the residues as written; N and C are the ends. Ends that are not written are not given here.
assay.metric: pKd
Please express pKd as -log10 of the molar concentration.

The reported value for CRKSIHCGPGRCFYTTGC (disulfide 1-18, 7-12) [R5A-M1 peptide (disulfide-constrained R5A mimic peptide 1)] in terms of pKd is 8.00
